# credit: patent US8546582B2

Experiment: 1-octanol/water distribution coefficient by high-performance liquid chromatography (JIS Z7260-117)
Format: physicochemical
Settings: HPLC, read-out: logPow
observed property: chromatographic logP
Answer with a bare number; do not write a unit.

-- ask Look up chromatographic logP: c1ccc2sc(SN(C3CCCCC3)C3CCCCC3)nc2c1
-- reply 7.4
